Test system: NCI-H23 lung
Test: NCI tumour cell line growth inhibition, 48 h
ATTRIBUTE MEASURED: TGI

Worked set:
MOLECULE | SYSTEM | TGI
CC/C(C)=C1\CCC(CN2CCOCC2)C1=O (stereo not drawn) | NCI-H23 lung | 30.6 µM
COc1cc(/C=C(\C#N)c2nc3ccccc3o2)ccc1O | NCI-H23 lung | 70 µM

// next item, TGI requested
Result for O=C1NC(=O)C(Cc2ccccc2)(c2cccnc2)N1 (stereo not drawn) , tested on NCI-H23 lung, TGI: > 100 µM

---

System: OVCAR-3 ovarian
Experiment: NCI tumour cell line growth inhibition, 48 h
ATTRIBUTE MEASURED: TGI (µM)
Please give a number only; it is taken to be in µM.

COMPOUND | ATTRIBUTE MEASURED | READOUT VALUE
CN1C2CCC1CC(CCOC(c1ccc(F)cc1)c1ccc(F)cc1)C2 (stereo not given) | TGI | 32.4

// sample COC(=O)Nc1nc2ccc(S(=O)(=O)NC(CC(C)C)C(=O)OC)cc2[nH]1 (stereo not given) , its TGI was 2.7

---

System: LOX IMVI melanoma
Test: NCI tumour cell line growth inhibition, 48 h
ATTRIBUTE MEASURED: TGI (µM)
Please give a number only; it is taken to be in µM.

MOLECULE | TGI (µM)
CC(O)c1cccc(NCc2c3ccccc3c(=O)n3c2oc2ccccc23)c1 (stereo not given) | 36

// next item, TGI requested
// sample CC1(C)C2CCC3=C(CCC4(C)C5C[C@](C)(C(=O)O)CC[C@]5(C)CC[C@]34C)[C@@]2(C)CC[C@@H]1O (stereo not given in full) , its TGI was 31.2

---

System: SW-620 colon
Assay: NCI tumour cell line growth inhibition, 48 h
ATTRIBUTE MEASURED: TGI

Worked set:
MOLECULE | SYSTEM | READOUT VALUE
O=C(O[C@H]1CN[C@H](C#Cc2cc3ncnc(Nc4ccc5c(ccn5Cc5cc(F)ccc5F)c4)c3s2)C1)N1CCOCC1 | SW-620 colon | 15.1 µM
CCC1(CC)C(=O)OC(=O)C1(CC)CC | SW-620 colon | > 100 µM
COC(=O)CCc1cc(OC)c2c(c1)C(C(=O)OC)C(c1ccc(OC)c(OC)c1)O2 (stereo not given) | SW-620 colon | > 100 µM
COc1ccc2nc3c([N+](=O)[O-])ccc4c3c(c2c1)N=CN4CCCN(C)C | SW-620 colon | > 44.3 µM

// sample `CC(C)c1ccc(C(=O)Nc2nc3ccc(O)cc3s2)cc1` , its TGI was > 100 µM

---

System: SK-MEL-28 melanoma
Assay: NCI tumour cell line growth inhibition, 48 h
ATTRIBUTE MEASURED: TGI

Worked set:
COMPOUND | SYSTEM | TGI
CC(C)c1ccc(C(=O)Nc2nc3ccc(O)cc3s2)cc1 | SK-MEL-28 melanoma | > 100 µM
CCN(CC)c1cc2c3c(c1)CCCN3CCC2 | SK-MEL-28 melanoma | > 10 µM

// sample c1ccc2c(C3CCN(CCN4CCOCC4)C3)c[nH]c2c1 (stereo unspecified) , its TGI was > 100 µM

// sample `CCOC(=O)Nc1nc2ccc(Cn3cccc3)cc2[nH]1` , its TGI was > 100 µM

// sample `O=[N+]([O-])c1cc(Cl)c(Cl)c([N+](=O)[O-])c1Cl` , its TGI was 3.14 µM

// sample `CCN(CC)C(=C(C(Cl)=C(Cl)Cl)[N+](=O)[O-])N(CC)CC` , its TGI was > 100 µM

---

Tested on: UO-31 renal
Experiment: NCI tumour cell line growth inhibition, 48 h
ATTRIBUTE MEASURED: TGI

// sample `O=C(/C=C/c1ccc(F)cc1)c1ccc(Cl)cc1Cl` , its TGI was > 100 µM

// sample `CC[C@](O)(CC(=O)O[C@H]1C(=O)O[C@@H]2C[C@H]3C(C)=CC(=O)[C@@H](O)[C@]3(C)[C@H]3[C@@]4(O)OC[C@]32[C@@H]1[C@@H](C)[C@H]4O)C(C)C` , its TGI was 0.0447 µM

// sample Ic1ncnc2c1ncn2C1CCCO1 (centres undefined) , its TGI was > 100 µM

---

Test system: OVCAR-3 ovarian
Experiment: NCI tumour cell line growth inhibition, 48 h
ATTRIBUTE MEASURED: TGI (µM)
Please give a number only; it is taken to be in µM.

ENTRY SMILES | TGI / µM
CCOC(=O)Nc1nc2ccc(Cn3cccc3)cc2[nH]1 | 6.3

// next item, TGI requested
// sample `COc1cc(/C=C(\C#N)c2nc3ccccc3o2)ccc1O` , its TGI was 40.9

---

Recorded TGI values for a group of compounds are listed next.
System: SN12C renal
Assay: NCI tumour cell line growth inhibition, 48 h

COMPOUND | ATTRIBUTE MEASURED | READOUT VALUE
C/C1=C/C(C)CC(C)OC(=O)C(C)NC(=O)C(Cc2ccc(O)c(I)c2)N(C)C(=O)CNC(=O)C(C)C1 (configuration not stated) | TGI | > 100 µM
CCCCOC(=O)NC(=O)c1cn(CCCOC(=O)CCCCCCCCC(=O)OCCCn2cc(C(=O)NC(=O)OCCCC)c(=O)[nH]c2=O)c(=O)[nH]c1=O | TGI | > 100 µM

// sample Cc1cc(Cl)ccc1NC(=O)CCCC(=O)C1CCCC1=O (configuration not stated) , its TGI was > 100 µM

// sample `CC(C)(C#N)c1cc(Cn2cncn2)cc(C(C)(C)C#N)c1` , its TGI was > 10000 µM

---

Test system: HS 578T breast
Assay: NCI tumour cell line growth inhibition, 48 h
ATTRIBUTE MEASURED: TGI

Worked set:
COMPOUND | TGI
O=C(N/N=C/c1ccc2c(c1)OCO2)Nc1ccccc1Cl | 8.25 µM
COc1cc(C(=O)/C(C)=C/c2c[nH]c3ccccc23)cc(OC)c1OC | 48 µM
COc1ccc(/C=N\NC(=O)CN2CCN(c3cc4c(cc3F)c(=O)c(C(=O)N/N=C/c3ccc(OC)c(OC)c3)cn4C3CC3)CC2)cc1OC | 8.99 µM
Cc1oc2c(c1C)S(=O)(=O)C(C#N)=C(c1ccccc1)N2 | > 100 µM

// next item, TGI requested
// sample `Cc1ccc(-n2cnc3c(N)nc(N)nc32)cc1` , its TGI was > 100 µM

---

System: OVCAR-4 ovarian
Assay: NCI tumour cell line growth inhibition, 48 h
ATTRIBUTE MEASURED: TGI

Worked set:
MOLECULE | TGI
Cc1cc(C)c([O-])c(CN(C)CCN(C)Cc2cc(C)cc(C)c2[O-])c1.O=C([O-])c1cccc(C(=O)[O-])n1.[Ti+4] | > 100 µM
Nc1nc(Cl)c(N)c(NCC2(CO)CCC2)n1 | > 100 µM
CN1C2CCC1CC(CCOC(c1ccc(F)cc1)c1ccc(F)cc1)C2 (stereo unspecified) | 38.8 µM
Cc1cc(C)nc(NS(=O)(=O)c2ccc(Nc3c4ccccc4nc4c(C(=O)NNCCO)cccc34)cc2)n1 | > 100 µM
CSc1nc(C)c2c(n1)SCC2 | > 10 µM

// next item, TGI requested
// sample `O=S(=O)(N/N=C/c1ccc(/C=N/NS(=O)(=O)c2ccccc2)cc1)c1ccccc1` , its TGI was > 100 µM

---

Recorded TGI values for a group of compounds are listed next.
Test system: NCI-H460 lung
Experiment: NCI tumour cell line growth inhibition, 48 h

// sample `CCN(CC)c1cc2c3c(c1)CCCN3CCC2` , its TGI was > 10 µM

// sample `CC(=O)Oc1cc2c(n(C)c1=O)-c1ccccc1C2` , its TGI was > 100 µM

// sample CCC(C)C(C(=O)N/N=C1/SCC(=O)N1c1ccccc1)C(=O)N/N=C1/SCC(=O)N1c1ccccc1 (configuration not stated) , its TGI was > 100 µM

// sample O=[N+]([O-])c1cccc(C2N3CCCCC3[C@@H]3c4[nH]c5ccccc5c4CCN23)c1 (some centres not stated) , its TGI was 31.1 µM

// sample `NOCC(=O)O` , its TGI was > 100 µM

// sample `O=[N+]([O-])c1cc(Cl)c(Cl)c([N+](=O)[O-])c1Cl` , its TGI was > 100 µM

// sample `COc1cc2c(cc1OCCCOc1cc3c(cc1OC)C(=O)N1C[C@H](F)C[C@H]1C=N3)N=C[C@@H]1C[C@@H](F)CN1C2=O` , its TGI was 20.1 µM

// sample `COc1ccc(OC)c2sc(N3C(=O)/C(=C/c4ccc(Cl)cc4)N=C3c3ccccc3)nc12` , its TGI was > 100 µM

---

System: MDA-N
Experiment: NCI tumour cell line growth inhibition, 48 h
Recorded TGI values for a group of compounds are listed next.
Please give a number only; it is taken to be in µM.

Worked set:
COMPOUND | ATTRIBUTE MEASURED | READOUT VALUE
CCN(CC)CCC(=O)NC1c2ccc(Cl)cc2Oc2c(C)cccc21 (stereo not given) | TGI | 32.3
O=C(c1ccccc1)c1ccc2nc3n(c2c1)C(c1c(F)cccc1F)SC3 (stereo not given) | TGI | 3.43
O=C(c1cc(Cl)cc(Cl)c1)N(C(=O)N1CCN(c2ccccc2)CC1)c1ccccc1 | TGI | 30.3

// next item, TGI requested
// sample CC1(C)C2CCC3=C(CCC4(C)C5C[C@](C)(C(=O)O)CC[C@]5(C)CC[C@]34C)[C@@]2(C)CC[C@@H]1O (stereo not given in full) , its TGI was 37.8
